# System: HEK-293T
# experiment notes: Multiplex assay against HEK293T
# Type: toxicity, cell-based
# experimental context: human, 12 h, 10 µM, compound concentration 10 uM, replicate 2
Population Hoechst High Intensity Objects (%) strictly under 6% means T; at 6% or over means F.

Query: Is it true that Population Hoechst High Intensity Objects (%) reported for CC[C@H]1OC(=O)[C@H](C)[C@@H](O[C@H]2C[C@@](C)(OC)[C@@H](O)[C@H](C)O2)[C@H](C)[C@@H](O[C@@H]2O[C@H](C)C[C@H](N(C)C)[C@H]2O)[C@@]2(C)CC(C)=C(O2)[C@H](C)[C@@H](O)[C@]1(C)O is less than 6%?
Response: F

Query: Just wondering, is Population Hoechst High Intensity Objects (%) of CNC[C@H](O)c1ccc(O)c(O)c1 [EPINEPHRINE] below 6%?
Response: F

Query: Find out if reported Population Hoechst High Intensity Objects (%) for CC(C)(C)c1ccc(S(=O)(=O)Nc2ccc(Cl)cc2C(=O)c2cc[n+]([O-])cc2)cc1 [VERCIRNON] is less than 6%
Response: T

Query: # check: Population Hoechst High Intensity Objects (%) < 6% for CSc1ccccc1N1CCN(CCCCCC(=O)NC2CCCc3ccccc32)CC1.Cl (stereo not drawn)
Response: F

Query: Input O=C(O)Cc1ccccc1Nc1c(Cl)cccc1Cl [DICLOFENAC] ; condition: Population Hoechst High Intensity Objects (%) strictly below 6%. Does it hold?
Response: F

---

# Test system: Fibroblast
# experiment notes: Multiplex assay against human fibroblast
# Type: toxicity, cell-based
# experimental context: 12 h, 1 µM, compound concentration 1 uM, replicate 1
metric: Population Normal (%)
Report field: quantity (unit follows the number).

Query: Please give measured Population Normal (%) of the following entry: O=C(O)c1cc2ccccc2c(Cc2c(O)c(C(=O)O)cc3ccccc23)c1O
Response: 97%

Query: Let me know recorded Population Normal (%) for COc1cc(C(=O)N(CCCc2ccccc2)Cc2ccc(CC(=O)O)cc2)cc(OC)c1C , thanks.
Response: 97%

Query: Retrieve Population Normal (%) measured for CNC[C@H](O)c1ccc(O)c(O)c1 [EPINEPHRINE] and print it.
Response: 98%

Query: Dear colleague, please send me the reported Population Normal (%) for Cc1ccc(/C(=C\CN2CCCC2)c2ccccn2)cc1 when you can.
Response: 96%

Query: Kindly indicate its recorded Population Normal (%). Item: CC[C@H]1OC(=O)[C@H](C)[C@@H](O[C@H]2C[C@@](C)(OC)[C@@H](O)[C@H](C)O2)[C@H](C)[C@@H](O[C@@H]2O[C@H](C)C[C@H](N(C)C)[C@H]2O)[C@@]2(C)CC(C)=C(O2)[C@H](C)[C@@H](O)[C@]1(C)O
Response: 97%

Query: Report Population Normal (%), nothing else, for this compound: N[C@@]1(C(=O)O)CO[C@H]2[C@H](C(=O)O)[C@H]21
Response: 98%

Query: Report Population Normal (%) for C[C@H]1[C@H]2CC[C@H]3[C@@H]4CC=C5C[C@@H](N(C)C)CC[C@]5(C)[C@H]4CC[C@]23CN1C
Response: 98%

Query: Indicate the recorded Population Normal (%) value for this compound: O=C(NCC(=O)N1CC[C@H](N[C@H]2CC[C@@](O)(c3ccc(-c4ncccn4)cn3)CC2)C1)c1cccc(C(F)(F)F)c1
Response: 97%
